Attribution: patent US8937183B2

Reported Signal to Background Ratios at 15 Minutes values for a set of molecules
MEASUREMENT_PROTOCOL: Signal strength differences due to reaction pH and buffer composition (hydrogen peroxide, D-cysteine conversion, LDR)
Format: biochemical
CONDITION_NOTES: TRIS pH 10.4, 15 minutes

MOLECULE: CC1(C)OB(c2ccc(COc3ccc4nc(C#N)sc4c3)cc2F)OC1(C)C [PBI 4481]
RECORDED_VALUE: 23.2

input: Which Signal to Background Ratios at 15 Minutes reading was recorded for the molecule CC1(C)OB(c2ccc(COc3ccc4nc(C#N)sc4c3)c3ccccc23)OC1(C)C [PBI 4480] ?
output: 11.1

input: Which Signal to Background Ratios at 15 Minutes reading was recorded for the molecule CC1(C)OB(c2ccc(COc3ccc4nc(C#N)sc4c3)cc2)OC1(C)C [PBI 4472] ?
output: 32.9

input: Which Signal to Background Ratios at 15 Minutes reading was recorded for the molecule CC1(C)OB(/C=C/COc2ccc3nc(C#N)sc3c2)OC1(C)C [PBI 4458] ?
output: 15.2
